Tested on: OMP-2, multiple myeloma
Assay: CellTiter-Glo cell viability assay, cancer cell cytotoxicity/anti-proliferation panel (Chempartner)
Format: cell-based
Conditions: 72 h; read-out: IC50 (absolute IC50)
pIC50: −log10 of the molar value.
Each entry below lists one item and its recorded pIC50 value.

{"columns": ["compound", "system", "pIC50"],
 "data": [
  ["CCCCCc1cc2c(c(O)c1C(=O)NCCCN1CCOCC1)[C@@H]1C=C(C)CC[C@H]1C(C)(C)O2 [Ia9]", "OMP-2, multiple myeloma", 5.17],
  ["CCCCCc1cc2c(c(O)c1C(=O)O)[C@@H]1C=C(C)CC[C@H]1C(C)(C)O2 [THCA, tetrahydrocannabinolic acid, reference compound]", "OMP-2, multiple myeloma", "< 5.00"],
  ["CCCCCc1cc2c(c(O)c1C(=O)NCCN(C)C)[C@@H]1C=C(C)CC[C@H]1C(C)(C)O2 [Ia6]", "OMP-2, multiple myeloma", "< 5.00"]
]}
